List of composite z-score values.
- target_under_test: Alpha-bungarotoxin (Bungarus multicinctus) (UniProt P60615)
- Sequence (P60615 whole entry, looked up): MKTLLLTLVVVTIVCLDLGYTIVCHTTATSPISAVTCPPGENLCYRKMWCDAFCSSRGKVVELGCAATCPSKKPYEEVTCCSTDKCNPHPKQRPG
- protocol: compounds binding labelled alpha-BTX control protein – biochemical, small-molecule microarray, Alexa647 label, 635/667 nm fluorescence, artefact control for SMM control protein annotation, profiling panel (AID 1117)
- condition_details: alpha-BTX-A647 binding fluorescence, higher = more signal
property_name: composite z-score

1) [N-]=[N+]=Nc1ccccc1C[C@]1(C(=O)N2CCCCC2)N=C(c2ccc(OCCCO)cc2)O[C@H]1c1ccccc1N=[N+]=[N-] : 0.703
2) O=C1O[C@H](c2ccccc2)[C@H](c2ccccc2)N2[C@H]1[C@@H](C(=O)Nc1nc3ccccc3s1)[C@]1(C(=O)Nc3ccc(C#CC4=CCCCC4)cc31)[C@H]2c1ccc(OCCO)cc1 : 2.12
3) [N-]=[N+]=NCc1ccccc1[C@@H]1OC(c2ccc(OCCCO)cc2)=N[C@]1(Cc1ccccc1N=[N+]=[N-])C(N)=O : 2.66

The measurements presented in this section are drawn from PubChem BioAssay.
